system: Mannheimia haemolytica; test: minimum inhibitory concentration (MIC); settings: isolate (source animal id): 56
Outcome Measure: minimum inhibitory concentration

Requested read-out: minimum inhibitory concentration. Entry: COc1cc(NS(=O)(=O)c2ccc(N)cc2)nc(OC)n1
> 256 µg/mL

Same question for CCCN1C[C@H](C)[C@@H](O)[C@](C)(O)[C@@H](CC)OC(=O)[C@H](C)[C@@H](O[C@H]2C[C@@](C)(OC)[C@@H](O)[C@H](C)O2)[C@H](C)[C@@H](O[C@@H]2O[C@H](C)C[C@H](N(C)C)[C@H]2O)[C@](C)(O)C[C@H]1C please.
≤ 1 µg/mL

Lookup CC[C@H]1OC(=O)C[C@@H](O)[C@H](C)[C@@H](O[C@@H]2O[C@H](C)[C@@H](O)[C@H](N(C)C)[C@H]2O)[C@@H](CCN2C[C@H](C)C[C@H](C)C2)C[C@@H](C)C(=O)/C=C/C(C)=C/[C@@H]1CO[C@@H]1O[C@H](C)[C@@H](O)[C@@H](OC)[C@H]1OC
4 µg/mL
